Listing of recorded alamarBlue assay OD 570 nm-600 nm by entry.
# Test system: Human umbilical vein endothelial cells (HUVEC)
# method_notes: alamarBlue viability assay in HUVECs
# Format: cell-based
# condition_summary: 160 nM, 72 h, normoxia
Write the value as a bare number.

Solved entries:
compound	alamarBlue assay OD 570 nm-600 nm
COc1cc(F)c(C(C)C)cc1-c1ccc(C(F)(F)F)cc1CN1C(=O)O[C@H](c2cc(C(F)(F)F)cc(C(F)(F)F)c2)[C@@H]1C [Anacetrapib]	0.0168
Cc1cc(C)c2c(c1)[C@@H](N(Cc1cc(C(F)(F)F)cc(C(F)(F)F)c1)c1nnn(C)n1)CCCN2C[C@H]1CC[C@H](C(=O)O)CC1 [Evacetrapib]	0.0227
CCOC(=O)N1c2ccc(C(F)(F)F)cc2[C@@H](N(Cc2cc(C(F)(F)F)cc(C(F)(F)F)c2)C(=O)OC)C[C@H]1CC [Torcetrapib]	0.0194

# evaluate next
If you can, please state the reported alamarBlue assay OD 570 nm-600 nm value of CCc1cc(CCN(Cc2ccc(C(C)(C)C)cc2)C(=O)c2cc(C(F)(F)F)cc(Cl)c2F)ccc1Cl [Compound 1] .
0.0127

###

Listing of recorded alamarBlue assay OD 570 nm-600 nm by entry.
# Test system: Human umbilical vein endothelial cells (HUVEC)
# method_notes: alamarBlue viability assay in HUVECs
# Type: cell-based
# condition_summary: 4.1 nM, 72 h, hypoxia
# Source text: Human umbilical vein endothelial cells (HUVEC), the growth medium EGM and the basal medium EBM was obtained from Lonza. Additional FCS for the starving medium was used form Invitrogen. The viability assay with alamarBlue® from Invitrogen was done in 96 well gelatin coated plates from BD. […] HUVECs cells were maintained in Endothial growth medium (EGM) until Passage 5. […] The absorbance has been detected at 570 nm with a reference wavelength of 600 nm.
Write the value as a bare number.

Solved entries:
COc1cc(F)c(C(C)C)cc1-c1ccc(C(F)(F)F)cc1CN1C(=O)O[C@H](c2cc(C(F)(F)F)cc(C(F)(F)F)c2)[C@@H]1C 0.0003
Cc1cc(C)c2c(c1)[C@@H](N(Cc1cc(C(F)(F)F)cc(C(F)(F)F)c1)c1nnn(C)n1)CCCN2C[C@H]1CC[C@H](C(=O)O)CC1 0.0141
CCOC(=O)N1c2ccc(C(F)(F)F)cc2[C@@H](N(Cc2cc(C(F)(F)F)cc(C(F)(F)F)c2)C(=O)OC)C[C@H]1CC 0.0129

# evaluate next
If you can, please state the reported alamarBlue assay OD 570 nm-600 nm value of CCc1cc(CCN(Cc2ccc(C(C)(C)C)cc2)C(=O)c2cc(C(F)(F)F)cc(Cl)c2F)ccc1Cl .
−0.0059

###

# System: Human umbilical vein endothelial cells (HUVEC)
# method_notes: alamarBlue viability assay in HUVECs
# Assay type: cell-based
# condition_summary: 25.6 nM, 72 h, normoxia
observation_type: alamarBlue assay OD 570 nm-600 nm
Write the value as a bare number.

Solved entries:
compound	observation_type	recorded_measurement
CCc1cc(CCN(Cc2ccc(C(C)(C)C)cc2)C(=O)c2cc(C(F)(F)F)cc(Cl)c2F)ccc1Cl [Compound 1]	alamarBlue assay OD 570 nm-600 nm	0.0056
COc1cc(F)c(C(C)C)cc1-c1ccc(C(F)(F)F)cc1CN1C(=O)O[C@H](c2cc(C(F)(F)F)cc(C(F)(F)F)c2)[C@@H]1C [Anacetrapib]	alamarBlue assay OD 570 nm-600 nm	0.0203
CCOC(=O)N1c2ccc(C(F)(F)F)cc2[C@@H](N(Cc2cc(C(F)(F)F)cc(C(F)(F)F)c2)C(=O)OC)C[C@H]1CC [Torcetrapib]	alamarBlue assay OD 570 nm-600 nm	0.0160

# evaluate next
If you can, please state the reported alamarBlue assay OD 570 nm-600 nm value of Cc1cc(C)c2c(c1)[C@@H](N(Cc1cc(C(F)(F)F)cc(C(F)(F)F)c1)c1nnn(C)n1)CCCN2C[C@H]1CC[C@H](C(=O)O)CC1 [Evacetrapib] .
0.0164

This collection of values is drawn from patent US20170035708A1.
